The following molecules are shown together with reported TGI values.
# Test system: UO-31 renal
# Method summary: NCI tumour cell line growth inhibition, 48 h
Recorded metric: TGI

Molecule | Target or system | Recorded metric | Reported result
O=P(Nc1ccccc1)(Oc1ccccc1)N1CCN(c2ccccc2)CC1 (stereo not given) | UO-31 renal | TGI | 31 µM
N#C/C(=C\c1ccc(Cl)cc1)c1nc(-c2cc3ccccc3oc2=O)cs1 | UO-31 renal | TGI | > 100 µM
c1cc2ccc3cc2cc1CNCCN1CCNCc2ccc4ccc(cc4c2)CNCCN(CCNC3)CCNCc2ccc3ccc(cc3c2)CNCC1 | UO-31 renal | TGI | > 100 µM
C=CCCC(CCC=C)(C(=O)O)C(=O)O | UO-31 renal | TGI | > 100 µM
CN1N=C(c2ccncc2)OC1c1ccc(Cl)cc1Cl (stereo not given) | UO-31 renal | TGI | > 100 µM
